Values from patent US20240343803A1

- assay-system: T1, human PVRIG-his (AcroBiosystems, Cat NO. PVG-H52H4) (human, UniProt Q6DKI7 41-171, limits assumed)
- T1 construct: also called human PVRIG protein
- T1 sequence (looked up): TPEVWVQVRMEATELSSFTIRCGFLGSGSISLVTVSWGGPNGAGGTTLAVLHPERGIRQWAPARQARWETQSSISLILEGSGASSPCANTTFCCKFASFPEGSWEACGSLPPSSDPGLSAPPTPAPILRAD
- test-details: SPR (BIAcore), antibody captured on Protein A chip, human PVRIG-His analyte
measured-metric: koff (s⁻¹)
Expressed in s⁻¹, but write only the number.

>>> assay_value("PVRIG-A105-H3 (Fc fusion, humanized variant of PVRIG-A105; also called A105.VH3; not shown: constant part not restated for the humanized forms; parents are VHH-hinge-CH2-CH3 of human IgG1; detected by anti-human) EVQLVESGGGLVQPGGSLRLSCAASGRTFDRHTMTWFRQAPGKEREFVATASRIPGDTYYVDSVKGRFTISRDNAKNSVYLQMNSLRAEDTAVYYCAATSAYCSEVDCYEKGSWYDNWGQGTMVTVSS")
0.000576

Recall and state the measured koff for PVRIG-A105-H1 (Fc fusion, humanized variant of PVRIG-A105; also called A105.VH1; not shown: constant part not restated for the humanized forms; parents are VHH-hinge-CH2-CH3 of human IgG1; detected by anti-human) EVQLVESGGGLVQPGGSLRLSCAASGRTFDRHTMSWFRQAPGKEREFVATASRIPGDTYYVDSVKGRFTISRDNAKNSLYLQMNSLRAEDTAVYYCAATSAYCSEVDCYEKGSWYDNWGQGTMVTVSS .
0.0013
